Consider the following sequences; for each one, report its PBM binding z-score.
system: LXRb homodimer (NR concentration 270 nM); test: PBM binding z-score (relative to random genomic background probes); higher = stronger binding; sequences stand for … in GC…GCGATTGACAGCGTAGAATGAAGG
Format: numeric value only, no unit, no commentary.

Provide only the value of recorded PBM binding z-score for TCGAGTAGGTTAGGGGCATGCAGAATGGCGTCGA
-0.161

Tell me its PBM binding z-score given ACAATGAGGTTAAGATCAGGGAAACAGAATACAT as the entry.
0.674

Identify the reported PBM binding z-score for the following entry. CCGACTGGGGCAACGTTACCATAACGCACAGCCA
-1.01

Identify the reported PBM binding z-score for the following entry. CGAACTAGTTCAGAACAGGACAGTGAAGGATGAT
-0.667

Item CTCGAAAGGTCGGTTGAGGTGAGTAGACGGATAA : provide PBM binding z-score
-0.503

Give recorded PBM binding z-score. ATATGTAGGTTAGCTGGGGTCATTGAGACTAGGC
1.35

For the sequence CAAACTAGGTCACCGGAAGGTGAAAGTCCGCATG , report PBM binding z-score.
0.0268

Please list PBM binding z-score recorded for the sequence CCAGACAGGTGAGCAGGTAACTCAGCCTCGATTA
-0.328

# return recorded PBM binding z-score for input TCTGCTAGGTCAGTTGGACAGCTAACGAGCTGCC
0.424

Indicate the recorded PBM binding z-score value for this sequence: CAGAGTAGGTTATGGGGCATTCAGGCAACGGTGA
-0.04

Supply PBM binding z-score value. Item: CTCGAAAGGTCGGTTGAGGTAAGTATACGGATAA
-0.165

Return PBM binding z-score (reported value) for this sequence: ACTATAAGTTGAGACGAGGGCAACCGATAGGTTG
-0.00417

Note PBM binding z-score for the sequence shown: AACTCTAGGTAAAGATAGTTCAGTGAATGCAAAT
-0.176

Identify measured PBM binding z-score corresponding to ATTGAAAGGTCGTGAGGTGAGTATACAGAAAGGC
1.2

Give PBM binding z-score for the following sequence: GTACCAGGGTGAATAGGTCGTTGATGAGTAGGCG
-0.461

Assign PBM binding z-score to the following record: GCTAGCCGGCCATTTGGGTCACTCAATGACGGGC
-0.65

Tell me PBM binding z-score reported for TCGAGTAGGTCAGGGGCATTCAGAATGGCGTCGA
-0.546

Look up PBM binding z-score of AGAACGAGGGCAATGAGTTAATAGCACGGGTGGC and report it.
-0.589

Report measured PBM binding z-score; entry is AGGCAAAGTTCATCTAGGTAACGTAAGATATGCT
1.35

Give reported PBM binding z-score value for TCTTGAAGATCAGCAGGTTAAGAAAGCTGGCCAA
-0.955

Consider the sequence TCTTGTAGATCAAGCAGGTTAAGCAAGCCTGAGT . State its measured PBM binding z-score.
-0.672

Identify measured PBM binding z-score associated with CCTATTAGTTGACCCTAAGGGCAACCGAAGCTCG
1.04

Fill in reported PBM binding z-score for this entry: CCTAGTTGGTCAAAGTCACACACGCTATAGGTAC
0.603

Please give measured PBM binding z-score of the following entry: ATCTCTAGGTAAGACTCAGGTCAGTGAAGAACGC
0.721

Answer with the recorded PBM binding z-score of TTACCAAGGTGGAGGTCGTTGATCCCTCTGTAGA only.
-0.0737

Indicate the recorded PBM binding z-score value for this sequence: ACTATTAGTTGAGACGAGGGCTACCGATAGGTTG
0.162

Please report PBM binding z-score for the following sequence: AGAATGAGGTGACCAAAGATCAGGGAAACGCTTG
-0.291

Give PBM binding z-score for the following sequence: CCGACTGGGGCATAAGTTTACCATAAGCCAGCCC
-0.91

State its PBM binding z-score: CTTCGGAGGACAGAAGGTCAGAGCTGTCCGCTTT
-0.772

Give PBM binding z-score for the following sequence: CGTCCAAGGTCAACGGTCAGTGAAGAGATGACGG
0.938

Quick one: give measured PBM binding z-score for AGAACGAGGGCACTCTGAGTTGATAGCAGAGTAG
-0.411

Annotate the sequence GCGACTGGGGTAAAGCAGGTTACCATAAGGTTGG with its measured PBM binding z-score.
-0.819

Using known records, supply PBM binding z-score for CCAACTAGGTCAAGGACAGTGAATCTCCGCACGC
0.422

Fill in PBM binding z-score for record CCTAGTTGGTCATGGTCACACACGCTATAGGTAC
0.175

Read the entry GGAACGAGGGCGTTCGAGTTGATAGCATGGCGAT and write its reported PBM binding z-score.
-0.964

Identify measured PBM binding z-score associated with CGAACTAGGTCAATGACAGTGAATCTCCGCACGC
-0.147

Complete the entry with PBM binding z-score for GCTGCTAGGTCAACTGATGTTCAGCTAAAGCTCG
0.048

Please give measured PBM binding z-score of the following entry: GCTAGTTGGTCAGTGAAAGGTCACACACCGGTCG
0.467

State its PBM binding z-score: CCCCGGAGGACAACAGGAGGTCAGAGCTGCCAGA
-0.479

Return the recorded PBM binding z-score value; entry: CCGACTGGGGCAAAGGGTACCATACTCAGTACGA
-1.06

Using known records, supply PBM binding z-score for ATATGTAGGTTAGCTGGGTTCATTCAGACTAGGC
0.361

Output PBM binding z-score of CGAACGAGGGCATCAGTTGATAGCAAATGCCGAT
-0.651

Find the measured PBM binding z-score of TGATATAGGTAATACAGGTGAAAGTCGGCATCTA and report it.
0.00189

Provide only the value of recorded PBM binding z-score for CCTATTGGGCCATTCAGAGGTCATTGATCATATG
0.58

Indicate its recorded PBM binding z-score; the sequence in question is CCTAGTTGGTAAGGAGGTCACACACCGGATATGA
0.74

Look up and state reported PBM binding z-score for GCTAGCTGGCCATTTGGGTCACTCAATGACGGGC
-1.15

Complete the entry with PBM binding z-score for GCGACTGGGGTATCAGCAGGTTACCATAACTTAA
-0.459

Give the measured PBM binding z-score for CCGATTGGGGCAAGGTTACCATAACGCACAGCCA
-1.05

Entry ACTATTAGTTGAGACGAGGCCAACCGATAGGTTG needs its PBM binding z-score filled in; supply it.
0.238

Output measured PBM binding z-score for this item: ATACCAAGGTGATCGTGAGGTCGTAGATACTAAC
-0.173

Note down PBM binding z-score recorded for GCTGTTAGTTGAAAGGGCAACCGAATGATTCTCG
0.0485

====

tested on: THRa:RXRa (NR concentration 90 nM, RXRa partner concentration 90 nM); assay: PBM binding z-score (relative to random genomic background probes); higher = stronger binding; sequences stand for … in GC…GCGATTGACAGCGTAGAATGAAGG
measure: PBM binding z-score
Field format: numeric only.

Identify PBM binding z-score associated with the sequence CCTTACGGGTCGAGGTTATAGCACGGGTGGTACG
1.84

Answer with the recorded PBM binding z-score for the sequence listed here: TCTCCGAGGACACGAAGGTCAGAGCTTTCCAGAG
3.74

Return PBM binding z-score (reported value) for this sequence: CCAGACAGGTGAAAGGGAACTCAGTCTGGTACGC
0.0918

Tell me PBM binding z-score reported for AGAATCAGGTTATACGTAGATCAGGGAAGAAAGT
1.17

# return recorded PBM binding z-score for input CAAACTAGGTCAAAGGTCGAAGTCGAGCCAACCA
4.01

Complete the entry with PBM binding z-score for CGAACTAGGTCAGAACTGGACAGTGAAGGATGAT
1.13

Give the reported value of PBM binding z-score for this record: CCGAGAAGGTTATGGGGCATTCAGGCAACGGTGA
1.3

Annotate the sequence CCTAGCAGGCCAATCTGGGTCACTCTAGGCTTGA with its measured PBM binding z-score.
3.2

In one line, give reported PBM binding z-score of the entry TTACCAAGGTGAGCTGAGGTTGTTGATCCAACTC .
3.29

Supply recorded PBM binding z-score for GCTGCTAAGTCAACTGATGGTCAGCTAAAGCTCG here.
-0.519

Specify PBM binding z-score for TATTGTAGATCAGCAGGTTAAGAAAGCTGGCCAA and stop.
0.0661

Provide only the value of recorded PBM binding z-score for CCTACTGGGCCAAAGCTCATTGATTCCAATGCTC
-0.58
